Listing of recorded CC50 at 48 h by entry.
test: Inhibition of cells growth by colorimetric assay (SRB); conditions: human
Answer format: numeric, µM implied, no suffix.

compound	CC50 at 48 h [µM]
COc1cc2c(cc1O)CCN[C@]21CS[C@@H]2c3c(OC(C)=O)c(C)c4c(c3[C@H](COC1=O)N1C[C@@H]3Cc5cc(C)c(OC)c(O)c5C(C21)N3C)OCO4 (stereo partly drawn)	13.4
C=CCN1[C@@H]2c3c(cc(C)c(OC)c3O)C[C@H]1[C@H](C#N)N1C2[C@@H]2SC[C@]3(NCCc4cc(O)c(OC)cc43)C(=O)OC[C@H]1c1c3c(c(C)c(OC(C)=O)c12)OCO3 (stereo partly drawn)	12.5
COc1c(C)cc2c(c1O)[C@@H]1C3[C@@H]4SCC(=O)C(=O)NC[C@@H](c5c6c(c(C)c(OC(C)=O)c54)OCO6)N3[C@@H](C#N)[C@H](C2)N1C (stereo partly drawn)	16.1
C=CCN1[C@@H]2c3c(cc(C)c(OC)c3OCOCCOC)C[C@H]1[C@H](C#N)N1C2CC2(O)C(=O)C(C)=C3OCOC3=C2[C@@H]1COC(=O)[C@H](CSCC1c2ccccc2-c2ccccc21)NC(=O)OC(C)(C)C (stereo partly drawn)	7.63
COc1cc2c(cc1O)CCN[C@]21CS[C@@H]2c3c(OC(C)=O)c(C)c4c(c3[C@H](COC1=O)N1C2C2N[C@@H](Cc3cc(C)c(OC)c(O)c32)[C@@H]1C#N)OCO4 (stereo partly drawn)	4.44

Next item in the queue.
In: Name the recorded CC50 at 48 h of the item C=CCN1[C@@H]2c3c(cc(C)c(OC)c3O)C[C@H]1[C@H](C#N)N1C2[C@@H]2SCC(=O)C(=O)OC[C@H]1c1c3c(c(C)c(OC(C)=O)c12)OCO3 (stereo partly drawn) in your answer.
Out: 15.4

====

test system: IGROV-ET; test: Inhibition of cells growth by colorimetric assay (SRB); details: read-out: IGROV-ET LC50; SRB assay, 48 hours exposure, IGROV-ET, cell killing
endpoint label: CC50 (µM)
State the answer as a number, implicitly in µM.

In: Identify CC50 associated with the compound COc1c(C)cc2c(c1O)C1C3C4SCC(NC(C)=O)C(=O)OCC(c5c6c(c(C)c(OC(C)=O)c54)OCO6)N3C(C#N)C(C2)N1C(C)=O (stereo not shown)
Out: 14.4

====

system: A-549; assay: cells; conditions: Homo sapiens, A549, 48 h, read-out: TGI A549
IC (TGI) of 0.2 µM or higher: met. Under 0.2 µM: not met.

compound	assayed target	assigned category
C=CCOc1c(C)c2c(c3c1CC1[C@H]4c5c(cc(C)c(OC)c5O)C[C@@H]([C@H](C#N)N1[C@H]3CN)N4C)OCO2 (stereo partly shown) [compound 1]	A-549	met
COc1c(C)cc2c(c1O)[C@H]1N[C@@H](C2)[C@H](C#N)N2C1[C@@H]1SCC(NC(C)=O)C(=O)OC[C@H]2c2c3c(c(C)c(OC(C)=O)c21)OCO3 (stereo partly shown) [compound 30]	A-549	not met
C=CCN1[C@@H]2c3c(cc(C)c(OC)c3O)C[C@H]1[C@H](C#N)N1C2[C@@H]2SCC(=O)C(=O)OC[C@H]1c1c3c(c(C)c(OC(C)=O)c12)OCO3 (stereo partly shown) [compound 13]	A-549	met

In: Textbook exercise: given the entry COc1cc2c(cc1O)CCN[C@]21CS[C@@H]2c3c(OC(C)=O)c(C)c4c(c3[C@H](COC1=O)N1C2C2N[C@@H](Cc3cc(C)c(OC)c(O)c32)[C@@H]1C#N)OCO4 (stereo partly shown) [compound 15] , state whether its IC (TGI) is greater than or equal to 0.2 µM.
Out: not met

In: # bool: IC (TGI) of CCC(=O)NC1CS[C@@H]2c3c(OC(C)=O)c(C)c4c(c3[C@H](COC1=O)N1C2[C@@H]2N[C@@H](Cc3cc(C)c(OC)c(O)c32)[C@@H]1C#N)OCO4 (stereo partly shown) [compound 33] >= 0.2 µM
Out: not met

In: Determine whether this compound has IC (TGI) no lower than 0.2 µM: C=CCN1[C@@H]2c3c(cc(C)c(OC)c3OCOCCOC)C[C@H]1[C@H](C#N)N1C2CC2(O)C(=O)C(C)=C3OCOC3=C2[C@@H]1CO (stereo partly shown) [compound 9]
Out: met

In: Decide: IC (TGI) of C=CCN1[C@@H]2c3c(cc(C)c(OC)c3O)C[C@H]1[C@H](C#N)N1C2[C@@H]2SC[C@]3(NCCc4cc(O)c(OC)cc43)C(=O)OC[C@H]1c1c3c(c(C)c(OC(C)=O)c12)OCO3 (stereo partly shown) [compound 14] >= 0.2 µM?
Out: met
